B1: KCNAB2 (parent)
chain: IPPYSRASLKGYQWLKDKILSEEG

# Variants of: B1
# procedure.text: protein stability index of a GFP-peptide fusion (GPS, HEK-293T) (PSI 1-6); higher = more stable;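 note: lentivirally expressed fusions sorted by FACS into six bins by GFP to DsRed ratio, PSI derived from sequencing read proportions per bin multiplied by bin number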
# condition.details: c terminus: a fixed tail appended
Binary classification by protein stability index, with 2 as an inclusive lower bound for TRUE; all other cases are FALSE.

Illustrative cases are given below, each with its answer.
{"variant.description": "I19N", "class.label": "TRUE"}
{"variant.description": "D17A", "class.label": "TRUE"}
{"variant.description": "Q13T", "class.label": "TRUE"}
{"variant.description": "Y12E", "class.label": "TRUE"}
{"variant.description": "Q13H", "class.label": "TRUE"}
{"variant.description": "A7K", "class.label": "FALSE"}
{"variant.description": "L9A", "class.label": "TRUE"}
{"variant.description": "D17Y", "class.label": "FALSE"}
{"variant.description": "P2H", "class.label": "FALSE"}
{"variant.description": "E22N", "class.label": "TRUE"}

Check this variant for protein stability index at or above 2: `L20W`
TRUE

Same question, `Q13V` this time
TRUE

Same question, `R6L` this time
TRUE

Same question, `L20I` this time
TRUE

Same question, `E22G` this time
FALSE

Same question, `I1S` this time
TRUE
